- target-or-system: T1, TBD-22 (HC D109A)
- T1 construct: Fab; also called HC D109A mutant
- T1 sequence (VH, as listed by the source, chain 1 of 2): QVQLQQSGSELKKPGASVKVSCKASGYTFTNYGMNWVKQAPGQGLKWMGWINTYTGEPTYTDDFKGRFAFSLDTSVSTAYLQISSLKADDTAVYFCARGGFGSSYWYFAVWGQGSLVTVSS
- T1 sequence (VL, as listed by the source, chain 2 of 2): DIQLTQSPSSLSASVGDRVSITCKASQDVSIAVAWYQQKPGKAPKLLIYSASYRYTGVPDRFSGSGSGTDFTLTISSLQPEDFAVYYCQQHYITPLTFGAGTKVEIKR
- assay-notes: competition ELISA, peptide vs Fab binding to captured biotin-TROP2
pIC50: −log10 of the molar value. Where no end group is shown, it is not given here.
reported-metric: pIC50

binder: VDFCKLYNWPVCQT (cysteine pairing not given here; also: biotinylated, site not given here) [Peptide-5]
pIC50: 7.00
//
binder: VDFCKIYSWPVCHQ (cysteine pairing not given here; also: biotinylated (site not given here)) [Peptide-25]
pIC50: 6.85
//
binder: IDFCLLYDWPICGR (cysteine pairing not given here; also: biotinylated (site not given here)) [Peptide-17]
pIC50: 7.15

I: MDFCQIYDWPICRL (cysteine pairing not given here; also: biotinylated (site not given here)) [Peptide-18]
II: SYLVCVKNVYCWTA (cysteine pairing not given here; also: biotinylated, site not given here) [Peptide-29]
// query Between the two listed entries I and II , which has its pIC50 at the higher number? Output the label that corresponds to your choice.
// result I
(I: 6.46, II: 4.47)
